- Experimental protocol: inhibitors of E-selectin induction by TNFa, primary screen, imaging, HUVEC, immunofluorescence, MLSMR starter and 10KST1 sets (AID 487);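 on nuclei count: 100% = median nuclei count of all wells on the same plate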
- Measurement setup: HUVEC TNFalpha-induced E-selectin immunofluorescence imaging, at 2 µM; measured here: cell number, toxicity
I'd be grateful if you could share measured nuclei count for these entries.
Answers are plain numbers, in %.

Req: What does the record list as nuclei count for Cc1nnc(N2C(=O)c3oc4ccccc4c(=O)c3C2c2ccco2)s1 (stereo unspecified) ?
Resp: 124

// input: 3 compounds below; output: nuclei count for each
1. CCCNS(=O)(=O)c1ccc(OCC(=O)NCc2ccco2)cc1
2. CCN1CCN(c2nc3c(c(=O)[nH]c(=O)n3C)n2CCSc2nc3ccccc3s2)CC1
3. CCN(CC)c1ccc(NC(=O)c2nc3nc(C)cc(C(F)F)n3n2)cc1

Resp:
[126, 113, 114]

Give nuclei count for each listed item.
1. Cn1c(N)c(C#N)c(C#N)c1-c1ccccc1
2. COc1ccc(N(CC(=O)O)S(=O)(=O)c2ccc(OC)c(OC)c2)cc1
3. C=CCn1c2ccccc2c2nnc(SCC(=O)NC(C(=O)OC)C(C)C)nc21 (stereo unspecified)

Resp:
183
111
103

State the recorded nuclei count for every item in the following list.
1. Nc1nc2n(n1)C(c1cccs1)CC(c1ccc(F)cc1)N2 (stereo unspecified)
2. COc1cc(S(=O)(=O)N(C)C)ccc1F
3. COc1cc(=O)[nH]c(=O)n1CC(=O)c1ccccc1
4. O=C(Cn1cnc2c(nnn2-c2ccc(F)cc2)c1=O)N1CCCc2ccccc21
5. CN(C)c1cccc2c(S(=O)(=O)Nc3ccccn3)cccc12

Resp:
[141, 116, 160, 102, 86.9]

Quick request: nuclei count for each listed item, please.
1. COC(=O)c1[nH]c(C)c(/C(O)=C2\C(=O)C(=O)N(CCN3CCOCC3)C2c2cccs2)c1C (stereo unspecified)
2. COc1ccc(N2C(=O)CCC(C(=O)N3CCCCC3)C2c2ccc(OC)c(OC)c2)cc1 (stereo unspecified)
3. O=C(COc1ccc(Cl)cc1)NCc1nnc(SCC(=O)Nc2ccc3c(c2)OCCO3)o1

Resp:
1. 126
2. 97
3. 119

---

- Experimental protocol: inhibitors of E-selectin induction by TNFa, primary screen, imaging, HUVEC, immunofluorescence, MLSMR starter and 10KST1 sets (AID 487);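 on nuclei count: 100% = median nuclei count of all wells on the same plate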
- Measurement setup: HUVEC TNFalpha-induced E-selectin immunofluorescence imaging, at 2 µM; measured here: cell number, toxicity
Readout name: nuclei count
Phrase the answer as number then unit, nothing more needed.

Example entries begin here.
Req: Record request: nuclei count value, item C=CCN(C(=O)CCC(=O)O)C1CC(=O)N(c2ccc(OC)cc2)C1=O (centres undefined)
Resp: 97.5%

Req: Quick one: nuclei count of CC12CN3CC(C)(CN(C1)C3c1ccc(Br)cc1O)C2 (centres undefined) ?
Resp: 138%

Req: Please give the measured nuclei count for this molecule: Cc1ccc2[nH]c3c(c2c1)CN(C(=O)CN1CC(C)OC(C)C1)CC3 (centres undefined)
Resp: 169%

Req: Need nuclei count, item C=CCSc1nnc(NC(=O)c2ccc(S(=O)(=O)NCC3CCCO3)cc2)s1 (centres undefined)
Resp: 114%

Req: I would be grateful if you could share the reported nuclei count for COc1ccc(N2CC(C(=O)Nc3ccc(F)cc3F)CC2=O)cc1 (centres undefined) .
Resp: 104%

Could you tell me nuclei count for each of these molecules? They are listed below.
1. COc1ccccc1C(=O)Nc1cc(Cl)ccc1O
2. CCOC(=O)/N=C(/NC(=O)Nc1ccc(C(=O)OCC)cc1)OC
3. CCCCn1nnc(NC(=O)c2cc3ccccc3o2)n1
4. COCCNc1nc2c(c(=O)n(C)c(=O)n2C)n1Cc1cccc(C(F)(F)F)c1
5. C=CCc1cccc(CNc2nc3ccccc3n2C(C)C)c1O

Resp:
1. 123%
2. 108%
3. 90.8%
4. 95.8%
5. 145%

For every listed record, write down its nuclei count.
1. CCOC(=O)CSc1nc(N2CCOCC2)c2c(c1C#N)CC(C)(C)N(C)C2
2. O=C(Cn1ncc2c(=O)oc3ccccc3c21)NCC1CCCO1 (centres undefined)
3. Cc1ccc(C)c(S(=O)(=O)C(C#N)c2nc3ccccc3nc2N2CC(C)OC(C)C2)c1 (centres undefined)
4. Cc1sc(NC(=O)CSc2nnc(COc3ccccc3)n2C)c(C#N)c1C

Resp:
1: 102%; 2: 125%; 3: 125%; 4: 113%

---

For each of the compounds below, state its inhibition.
- Experimental protocol: inhibitors of TNFa-induced NFkB p65 translocation, primary screen, imaging, HUVEC, MLSMR starter and 10KST1 sets (AID 438);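 further: compound added about 3h40 before a 20 min TNFalpha stimulation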;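 on inhibition: signal is the nuclear over cytoplasmic p65 intensity ratio per well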
- Measurement setup: HUVEC TNFa-induced p65 nuclear translocation; at 2 µM, stronger effect = higher value, 0% TNFa-plus-vehicle, 100% no-TNFa wells
Numbers only, in %.

Req: // inhibition lookup, key: COC(=O)Nc1sc2c(c1C(=O)N1CCOCC1)CCC(C)C2 (stereo not drawn)
Resp: -10.6

Req: Item `Oc1ccc(-c2n[nH]c(=S)n2Cc2ccccc2)cc1` has what recorded inhibition?
Resp: 9.6

Req: Would you kindly share the measured inhibition for COc1ccc(/C(O)=C2/C(=O)C(=O)N(CCCN(C)C)C2c2ccc(Cl)cc2)cc1OC (stereo not drawn) ?
Resp: 4.5

Req: For `COc1ccc(NC(=O)CCS(=O)(=O)c2ccc(OC)cc2)cc1` , what is its reported inhibition?
Resp: -2.5

Req: I have this compound here, CCCSc1nnc(N2C(=O)CC(c3ccsc3)C3=C2CCCC3=O)s1 (stereo not drawn) , and I need its recorded inhibition.
Resp: -5.3

For each of the compounds below, note its inhibition.
1. CC(C)c1nnc(NC(=O)c2ccc(N3C(=O)CCC3=O)cc2)s1
2. N#C/C(=C(/O)CN1CCOCC1)c1nc2ccccc2s1
3. O=C1CCCN1CCCNc1ncnc2c1[nH]c1ccc(Cl)cc12
4. CC(C)(C)NC(=O)/C=N/O
5. COC(=O)c1cn(C(=O)c2ccc(Br)o2)c2ccccc12
6. NC(=O)C(Cc1ccccc1)NS(=O)(=O)c1ccc(N2CCCC2=O)cc1 (stereo not drawn)
7. CC1CCc2nn(CC(=O)NCCN3CCOCC3)cc2C1 (stereo not drawn)

Resp:
1. -8
2. 2.1
3. 0.8
4. -13.4
5. -12.5
6. -8.7
7. 4

Req: Given CCCOc1ccc(N2CC(C(=O)Nc3ccc4c(c3)OCO4)CC2=O)cc1 (stereo not drawn) , state its recorded inhibition.
Resp: -5

---

- Experimental protocol: inhibitors of E-selectin induction by TNFa, primary screen, imaging, HUVEC, immunofluorescence, MLSMR starter and 10KST1 sets (AID 487);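 on inhibition: signal is fraction of cell area covered by stained E-selectin grains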
- Measurement setup: HUVEC TNFalpha-induced E-selectin immunofluorescence imaging, at 2 µM; stronger effect = higher value
Answer each item with its documented inhibition.
Numbers only, in %.

Req: # lookup: inhibition of `COC(=O)c1ccc(CSc2nc(N3CCOCC3)c3c(c2C#N)CC(C)(C)OC3)o1`
Resp: -97.4

Req: Give the measured inhibition of `CCC(NC(=O)Nc1nccs1)(C(F)(F)F)C(F)(F)F` .
Resp: 21.5

Attention now turns to another entry.
Req: Fill blank: measured inhibition of the compound COc1ccc(S(=O)(=O)NC(C)C(=O)Nc2cccc(C(C)=O)c2)cc1 (stereo not drawn) is ____.
Resp: -2.9

---

Provide the reported NADPH fluorescence slope of each item.
- Assayed target: Voltage-gated potassium channel subunit beta-2 (Rattus norvegicus)
- Experimental protocol: KvBeta positive modulators, primary screen, biochemical, NADPH fluorescence (AID 623);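 further: fluorescence intensity change per second fitted from 20 to 320 s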
- Measurement setup: Recombinant KvBeta, NADPH fluorescence decrease slope, 10 min; at 10 µM; stronger effect = lower value
One number for each entry.

Worked cases, answers included:
Req: // NADPH fluorescence slope lookup, key: `COc1ccc(-c2nc(CSCC(=O)NCc3ccc4c(c3)OCO4)c(C)o2)cc1OC`
Resp: -5.4e-05

Req: I am curious: what NADPH fluorescence slope value has been reported for `CC(=O)Nc1c(C(=O)C2CC2)oc2ccccc12` ?
Resp: -2.5e-05

Now turn to the next molecule.
Req: Can you look up the measured NADPH fluorescence slope of `CSc1nc(C)c(C(=O)Nc2ccccc2)c(C)c1C#N` for me?
Resp: -2.5e-05

---

- Experimental protocol: inhibitors of TNFa-induced NFkB p65 translocation, primary screen, imaging, HUVEC, MLSMR starter and 10KST1 sets (AID 438);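 further: compound added about 3h40 before a 20 min TNFalpha stimulation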
- Measurement setup: HUVEC TNFa-induced p65 nuclear translocation; measured here: nuclei count (cytotoxicity indicator), at 2.08 µM
Readout name: cell count
Answers are plain numbers.

Examples with their reported cell count follow.
Req: Param item = `Cc1nnc2n(C3CCCCC3)c(=O)c3c4c(sc3n12)COC(C)(C)C4` ; retrieve measured cell count.
Resp: 471

Req: Returns the measured cell count for the input compound. Input: `Cn1c(=O)c2c(nc(NCc3ccc4c(c3)OCO4)n2Cc2ccccc2)n(C)c1=O`
Resp: 656

Req: Given the entry COC(=O)c1ccc(C2/C(=C(\O)c3ccc4c(c3)OCCO4)C(=O)C(=O)N2CCCN(C)C)cc1 (centres undefined) , report its measured cell count.
Resp: 366

Next up:
Req: Give its cell count value. Item: `COc1ccc(-c2nnc(SCC(=O)Nc3ccc(Cl)cc3)n2C)cc1`
Resp: 327
